Target: C-Raf kinase (SEQ ID NO: 2) (Homo sapiens, UniProt P04049, Y340D/Y341D)
Construct: C-Raf residues 306-end; Y340D, Y341D with; GST (N); purchased Sigma
Sequence (P04049 307-648 Y340D/Y341D): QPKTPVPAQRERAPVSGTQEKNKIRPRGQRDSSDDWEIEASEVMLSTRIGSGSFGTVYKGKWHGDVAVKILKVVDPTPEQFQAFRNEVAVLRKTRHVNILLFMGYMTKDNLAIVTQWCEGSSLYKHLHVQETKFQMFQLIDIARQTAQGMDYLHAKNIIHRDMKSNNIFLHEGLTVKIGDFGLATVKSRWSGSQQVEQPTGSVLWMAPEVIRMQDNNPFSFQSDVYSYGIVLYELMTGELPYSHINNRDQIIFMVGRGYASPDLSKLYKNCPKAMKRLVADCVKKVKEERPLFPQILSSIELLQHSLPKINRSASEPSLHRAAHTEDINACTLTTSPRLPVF
Test: Biochemical Assay for C-Raf (coupled pyruvate kinase/lactate dehydrogenase assay)
Conditions: 1 mM ATP; read-out: CRAF (inhibition of biochemical activity, IC50)
What IC50 was measured for each of the following?

Below, each entry is followed by its recorded IC50 result.
CC(=O)Nc1cc(-c2cc(-c3cc(NC(=O)c4ccc(C(F)(F)F)nc4)ccc3C)cn(CCO)c2=O)ccn1 [Example 29] : 1000 to 10000 nM
Cc1ccc(NC(=O)c2cc(C3CC3)cnn2)cc1-c1cncc(-c2cc(NC(=O)C3CC3)ncn2)c1 [Example 69] : < 100 nM
Cc1ccc(NC(=O)c2cnc(C(F)(F)F)nc2)cc1-c1ccnc(-c2cn[nH]c2)c1 [Example 126] : 1000 to 10000 nM

I have 2 compounds here; please give me IC50 for each one.
1. CC(=O)Nc1cc(-c2cc(-c3cc(NC(=O)c4ccc(C(F)(F)F)nc4)ccc3C)nn(C)c2=O)ccn1 [Example 12]
2. CC(=O)Nc1cc(-c2cc(-c3cc(NC(=O)c4ccc(C(F)(F)F)nn4)ccc3C)ccn2)ccn1 [Example 13]

(A)
["1000 to 10000 nM", "100 to 500 nM"]

All values here come from patent US20260226084A1.
